# Tested on: SK-MEL-5 melanoma
# experimental_details: NCI tumour cell line growth inhibition, 48 h
Measured TGI values are reported for all entries that follow.

molecule	observed_measurement
Cc1ccc(NC(=O)c2cc3ccccc3c(N=Nc3cc(S(=O)(=O)O)ccc3O)c2O)c(C)c1	> 100 µM
Nc1ccc(Oc2ccc(C3(c4ccc(Oc5ccc(N)cc5)cc4)C4CC5CC(C4)CC3C5)cc2)cc1	> 100 µM
C[C@]12CC[C@@H]3c4cc(OC(F)F)c(OS(N)(=O)=O)cc4CC[C@H]3[C@@H]1CC[C@@H]2OS(N)(=O)=O	13.4 µM

// next entry
Send back SK-MEL-5 melanoma TGI of CCOC(=O)C(Cc1cn(C(C)=O)c2ccccc12)P(=O)(OCC)OCC (centres undefined) only.
> 100 µM

Reference source: PubChem BioAssay (NCI)
